B1: RHOBTB3 (parent)
chain: GGADIIVIKYNVNDKFSFHEVKDN

# Variants of: B1
# PROTOCOL_NOTES: protein stability index of a GFP-peptide fusion (GPS, HEK-293T) (PSI 1-6); higher = more stable;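 also: lentivirally expressed fusions sorted by FACS into six bins by GFP to DsRed ratio, PSI derived from sequencing read proportions per bin multiplied by bin number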
# PARTICULARS: c terminus: a fixed tail appended
MEASUREMENT_NAME: protein stability index
Just the number, please, no unit attached.

For the variant `I8Y` , give its measured protein stability index value.
1.59

For the variant `F16R` , give its measured protein stability index value.
1.6

For the variant `Y10Q` , give its measured protein stability index value.
1.62

For the variant `D23A` , give its measured protein stability index value.
2.71

For the variant `N13H` , give its measured protein stability index value.
2.57

For the variant `V21C` , give its measured protein stability index value.
1.96

For the variant `V12H` , give its measured protein stability index value.
1.92

For the variant `I8E` , give its measured protein stability index value.
4.25

For the variant `D23I` , give its measured protein stability index value.
2.36

For the variant `D14K` , give its measured protein stability index value.
3.14

For the variant `V12R` , give its measured protein stability index value.
2.8

For the variant `K15L` , give its measured protein stability index value.
3.48

For the variant `I6D` , give its measured protein stability index value.
4.07

For the variant `H19G` , give its measured protein stability index value.
2.55

For the variant `G1A` , give its measured protein stability index value.
2.07

For the variant `D4E` , give its measured protein stability index value.
4.16

For the variant `V12T` , give its measured protein stability index value.
2.73

For the variant `H19M` , give its measured protein stability index value.
3.71

For the variant `K22N` , give its measured protein stability index value.
2.1

For the variant `A3S` , give its measured protein stability index value.
1.74

For the variant `N24F` , give its measured protein stability index value.
3.49

For the variant `D23N` , give its measured protein stability index value.
2.44

For the variant `V7W` , give its measured protein stability index value.
1.52

For the variant `K15G` , give its measured protein stability index value.
4.47

For the variant `K9D` , give its measured protein stability index value.
1.66

For the variant `D4W` , give its measured protein stability index value.
2.41

For the variant `K9A` , give its measured protein stability index value.
1.67

For the variant `K15H` , give its measured protein stability index value.
2.87

For the variant `K9P` , give its measured protein stability index value.
2.07

For the variant `I8T` , give its measured protein stability index value.
2.95

For the variant `G2H` , give its measured protein stability index value.
3.5
